- target-system: T1, cynomolgus SIRP-α D1 domain (cyno2) (cynomolgus monkey, UniProt Q5TFQ8 30-148 (human entry), limits assumed)
- T1 chain: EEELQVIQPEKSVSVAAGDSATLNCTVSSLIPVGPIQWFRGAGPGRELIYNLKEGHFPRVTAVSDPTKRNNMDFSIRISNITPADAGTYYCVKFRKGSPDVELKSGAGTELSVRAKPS
- measurement-notes: SPR, Langmuir fit
Consider the following binders and their measured koff readings.
Record the value in s⁻¹, omitting the unit from your answer.

binder: S27 (scFv, V domains shown, also called clone 27; scFv-Fc form of AB27) VH: DVQLVESGGGVVRPGESLRLSCAVSGFRFSSYAMSWVRQAPGKGLEWVSGISSGGDTYYVDSVKGRFTISRDNSKNTLYLQVNSLTAEDTAIYYCARETWNHLFDYWGLGTLVTVSS VL: ALTQPASVSADLGETVKITCSGGDSSSHYYGWYQQKSPGSAPVTVIYSDDERPSDIPSRFSGSASGSTATLTITGVRVEDEAIYYCGAYDGSTYANTFGAGTTLTVL
result-value: 0.000161
//
binder: S164 (scFv, V domains shown) VH: DVQLVESGGGLVRPGESLRLSCAASGFTFTNYAVTWVRQAPGEGLEWVSLISVTGTTYYADSVKGRFTISRDNSKSTLYLQMNGLRAEDTAVYYCAKVTWKNVFDYWGLGTLVTVSS VL: EIVLTQSPGTLSVSPGERATFSCRASQTVGSKLAWYQQKPGQAPRLLIYDANTRATGIPARFSGSRSGTEFTLTISSLQSEDFAVYYCQQHTDWPPYTFGGGTKVEIK
result-value: 0.000408

Query binder follows.
Data request, read-out koff, for S206 (scFv, V domains shown) VH: DVQLVESGGAVVRPGETLRLSCTASGFTFSSYAMSWVRQAPGKGLEWVSGISASGSDTYYADSVKGRSTISRDNSKNTLYLRMSSLTAEDTAVYYCARETWNHLFDYWGLGTLVTLSS VL: ALTQPASVSANPGETVKITCSGGGTSSYYGWYQQKSPGSAPVTLIHSDDKRPSDIPSRFSGSASGSTATLTITGVQAEDEAVYYCGGYDYTTYVNTFGAGTTLTVL
0.000518
